Biological target: human recombinant CRF-BP (Homo sapiens)
Construct: made in house
Sequence (P24387 25-322): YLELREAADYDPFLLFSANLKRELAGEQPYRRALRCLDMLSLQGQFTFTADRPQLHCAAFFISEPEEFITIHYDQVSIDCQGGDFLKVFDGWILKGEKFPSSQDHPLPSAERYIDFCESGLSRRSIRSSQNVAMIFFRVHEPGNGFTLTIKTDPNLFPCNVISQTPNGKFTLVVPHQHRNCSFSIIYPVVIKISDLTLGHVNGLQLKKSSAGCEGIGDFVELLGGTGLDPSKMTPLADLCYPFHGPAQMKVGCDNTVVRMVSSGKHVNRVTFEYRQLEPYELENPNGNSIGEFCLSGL
Assay: LIRMA: displacement of 125I-h/rCRF from CRF-BP, Ki
Type: binding
Conditions: inhibitory binding affinity constant (Ki)
pKi: −log10 of the molar value.
So I've got a bunch of compounds here, and I need their pKi values.

* CCCn1c(O)c(C=Nc2nc3c(s2)CCC3)c(=O)n(CCC)c1=S | > 7.30

Batch lookup, pKi per entry.
1. CCn1c(=O)c(C=Nc2nncs2)c(O)n(CCc2ccccc2)c1=S
2. CCn1c(O)c(C=Nc2nc3cc([N+](=O)[O-])ccc3s2)c(=O)n(CC)c1=S

1. > 7.30
2. > 7.30

###

biological target: human recombinant CRF-BP (Homo sapiens); construct: made in house; assay: LIRMA: displacement of 125I-h/rCRF from CRF-BP, Ki; assay type: binding; details: inhibitory binding affinity constant (Ki)
readout: Ki

Observe how each entry below is paired with its result.
• CCn1c(=O)c(C=Nc2ncc(C)s2)c(O)n(CCc2ccccc2)c1=S [Compound 117-1] = < 100 nM
• CCCn1c(O)c(C=Nc2nc(N(Cc3ccccc3)c3ccccc3)ns2)c(=O)n(CCC)c1=S [Compound 133] = < 50 nM
• CCn1c(O)c(C=Nc2nc3c(OC)cccc3s2)c(=O)n(CC)c1=S [Compound 73] = < 50 nM
• CCCn1c(O)c(C=Nc2nnc(C(F)(F)F)s2)c(=O)n(CCC)c1=S [Compound 106] = < 100 nM
• O=c1c(C=NC(=S)Nc2ccc(Cl)cc2)c(O)n(Cc2ccccc2)c(=S)n1Cc1ccccc1 [Compound 53] = < 100 nM
• CCn1c(=O)c(C=Nc2nc3c(OC)cccc3s2)c(O)n(CCc2ccccc2)c1=S [Compound 73-1] = < 100 nM
• O=c1c(C=Nc2nc3ccccc3[nH]2)c(O)n(CCc2cccs2)c(=S)n1CCc1cccs1 [Compound 97] = < 50 nM
• Cc1cnc(N=Cc2c(O)n(Cc3ccccc3)c(=S)n(Cc3ccccc3)c2=O)s1 [Compound 118] = < 50 nM

Batch lookup, Ki per entry.
1. CCCn1c(O)c(C=Nc2nnc(SCC)s2)c(=O)n(CCC)c1=S [Compound 116]
2. CCn1c(=O)c(C=Nc2nc3ccc(C)cc3s2)c(O)n(CCc2ccccc2)c1=S [Compound 75-1]
3. CCn1c(=O)c(C=Nc2nc3cc(C)c(C)cc3[nH]2)c(O)n(CCc2ccccc2)c1=S [Compound 85-1]
4. CCCn1c(O)c(C=NC(=S)Nc2ccc(Cl)cc2)c(=O)n(CCC)c1=S [Compound 54]
5. CCn1c(O)c(C=Nc2nc3ccc(OC)cc3s2)c(=O)n(CC)c1=S [Compound 76]

["< 100 nM", "< 100 nM", "< 50 nM", "< 100 nM", "< 50 nM"]

Batch lookup, Ki per entry.
1. CCCCCCCCCCCCCCCCSc1nnc(N=Cc2c(O)n(Cc3ccccc3)c(=S)n(Cc3ccccc3)c2=O)s1 [Compound 121]
2. CCn1c(=O)c(C=Nc2nc(N(Cc3ccccc3)c3ccccc3)ns2)c(O)n(CCc2ccccc2)c1=S [Compound 131-1]

< 50 nM
< 50 nM

Batch lookup, Ki per entry.
1. CCn1c(O)c(C=Nc2nc3c(C(F)(F)F)cccc3s2)c(=O)n(CC)c1=S [Compound 80]
2. CCn1c(=O)c(C=Nc2nc3c(Cl)cccc3s2)c(O)n(CCc2ccccc2)c1=S [Compound 95-1]

1. < 100 nM
2. < 100 nM

###

Target: human recombinant CRF-BP (Homo sapiens, UniProt P24387)
Construct: made in house
Assay: LIRMA: displacement of 125I-h/rCRF from CRF-BP, Ki
Format: binding
Settings: inhibitory binding affinity constant (Ki)
Method: In LIRMA CRF-BP isolated from brain tissue, serum, or cells expressing a recombinant form, is added to wells of a 96-well plate, to small polypropylene microfuge tubes, or to glass borosilicate tubes in a binding buffer (0.02% NP-40 in 50 mM phosphate-buffered saline). ^125 I-h/rCRF (New England Nuclear) and the candidate ligand inhibitor at 10 μM are added and the reaction is incubated for 1 hour at room temperature. […]
pKi: −log10 of the molar value.
readout: pKi

* Cc1cnc(N=Cc2c(O)n(Cc3cccs3)c(=S)n(Cc3cccs3)c2=O)s1 [Compound 157] | > 7.30
* CCn1c(O)c(C=NC(=S)Nc2c(Cl)cc(Cl)cc2Cl)c(=O)n(CC)c1=S [Compound 49] | > 7.00
* CCn1c(O)c(C=Nc2nc3cc(C)ccc3[nH]2)c(=O)n(CC)c1=S [Compound 86] | > 7.30

Pending compound:
I would be grateful if you could share the reported pKi for O=c1c(C=Nc2nnc(C(F)(F)F)s2)c(O)n(Cc2ccccc2)c(=S)n1Cc1ccccc1 [Compound 105] .
> 7.00

###

So I've got a bunch of compounds here, and I need their Ki values.
target: human recombinant CRF-BP (Homo sapiens, UniProt P24387); construct: made in house; assay: LIRMA: displacement of 125I-h/rCRF from CRF-BP, Ki; format: binding; conditions: inhibitory binding affinity constant (Ki)

Observe how each entry below is paired with its result.
• CCCn1c(O)c(C=Nc2nnc(C)s2)c(=O)n(CCC)c1=S [Compound 103] = < 100 nM
• O=c1c(C=Nc2nc(N(Cc3ccccc3)c3ccccc3)ns2)c(O)n(Cc2ccccc2)c(=S)n1Cc1ccccc1 [Compound 132] = < 50 nM

Notebook: pull reported Ki for human recombinant CRF-BP (Homo sapiens, UniProt P24387), entry O=c1c(C=Nc2ncc(Br)s2)c(O)n(Cc2ccccc2)c(=S)n1Cc1ccccc1 [Compound 140]
< 100 nM

###

biological target: human recombinant CRF-BP (Homo sapiens, UniProt P24387); construct: made in house; assay: LIRMA: displacement of 125I-h/rCRF from CRF-BP, Ki; format: binding; settings: inhibitory binding affinity constant (Ki)
pKi: −log10 of the molar value.
readout: pKi

Observe how each entry below is paired with its result.
• CCn1c(O)c(C=Nc2nc3ccc(C)cc3s2)c(=O)n(CC)c1=S = > 7.30
• O=c1c(C=Nc2nncs2)c(O)n(Cc2ccccc2)c(=S)n1Cc1ccccc1 = > 7.30

Batch lookup, pKi per entry.
1. CCn1c(=O)c(C=Nc2nnc(C(F)(F)F)s2)c(O)n(CCc2ccccc2)c1=S
2. O=c1c(C=Nc2nc3ccccc3[nH]2)c(O)n(CCCc2ccccc2)c(=S)n1CCCc1ccccc1
3. CCn1c(O)c(C=Nc2nc3c(C)cccc3s2)c(=O)n(CC)c1=S
4. CCn1c(=O)c(C=Nc2nc3ccc(OC)cc3s2)c(O)n(CCc2ccccc2)c1=S
5. CCCn1c(O)c(C=Nc2nnc(CC)s2)c(=O)n(CCC)c1=S

["> 7.00", "> 7.30", "> 7.00", "> 7.00", "> 7.00"]

Notebook: pull reported pKi for human recombinant CRF-BP (Homo sapiens, UniProt P24387), entry CCn1c(O)c(C=Nc2nc3ccc(Cl)cc3s2)c(=O)n(CC)c1=S
> 7.00

###

So I've got a bunch of compounds here, and I need their Ki values.
Target: human recombinant CRF-BP (Homo sapiens, UniProt P24387)
Construct: made in house
Sequence (P24387 25-322): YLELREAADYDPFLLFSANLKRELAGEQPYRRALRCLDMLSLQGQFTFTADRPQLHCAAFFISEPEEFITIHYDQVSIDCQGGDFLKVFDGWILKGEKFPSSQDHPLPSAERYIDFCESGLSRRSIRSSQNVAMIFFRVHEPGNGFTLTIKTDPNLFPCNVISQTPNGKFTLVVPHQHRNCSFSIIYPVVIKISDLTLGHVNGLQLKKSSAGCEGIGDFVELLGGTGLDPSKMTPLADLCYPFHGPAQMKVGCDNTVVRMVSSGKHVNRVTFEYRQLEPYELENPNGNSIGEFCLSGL
Test: LIRMA: displacement of 125I-h/rCRF from CRF-BP, Ki
Format: binding
Settings: inhibitory binding affinity constant (Ki)

• CCn1c(O)c(C=Nc2nc3cc(C)c(C)cc3[nH]2)c(=O)n(CC)c1=S = < 50 nM
• CCn1c(O)c(C=Nc2nc3ccccc3[nH]2)c(=O)n(CC)c1=S = < 50 nM

Batch lookup, Ki per entry.
1. CCSc1nnc(N=Cc2c(O)n(Cc3ccccc3)c(=S)n(Cc3ccccc3)c2=O)s1
2. CCn1c(O)c(C=Nc2nc3ccc([N+](=O)[O-])cc3s2)c(=O)n(CC)c1=S
3. CCn1c(O)c(C=Nc2nnc(C(F)(F)F)s2)c(=O)n(CC)c1=S

< 100 nM
< 100 nM
< 100 nM
